- testedOn: Mtb PBP3 Δ1-122 (Mycobacterium tuberculosis)
- Construct: gene pbpB; N-terminally truncated (residues 1-122 removed), codon-optimised gene in pCold, E. coli BL21(DE3), His tag cleaved with 3C protease, calculated mass 60,148 Da, observed 60,152 Da
- Sequence (L0T911 whole entry, looked up, stated change not applied, the tested form may be a part): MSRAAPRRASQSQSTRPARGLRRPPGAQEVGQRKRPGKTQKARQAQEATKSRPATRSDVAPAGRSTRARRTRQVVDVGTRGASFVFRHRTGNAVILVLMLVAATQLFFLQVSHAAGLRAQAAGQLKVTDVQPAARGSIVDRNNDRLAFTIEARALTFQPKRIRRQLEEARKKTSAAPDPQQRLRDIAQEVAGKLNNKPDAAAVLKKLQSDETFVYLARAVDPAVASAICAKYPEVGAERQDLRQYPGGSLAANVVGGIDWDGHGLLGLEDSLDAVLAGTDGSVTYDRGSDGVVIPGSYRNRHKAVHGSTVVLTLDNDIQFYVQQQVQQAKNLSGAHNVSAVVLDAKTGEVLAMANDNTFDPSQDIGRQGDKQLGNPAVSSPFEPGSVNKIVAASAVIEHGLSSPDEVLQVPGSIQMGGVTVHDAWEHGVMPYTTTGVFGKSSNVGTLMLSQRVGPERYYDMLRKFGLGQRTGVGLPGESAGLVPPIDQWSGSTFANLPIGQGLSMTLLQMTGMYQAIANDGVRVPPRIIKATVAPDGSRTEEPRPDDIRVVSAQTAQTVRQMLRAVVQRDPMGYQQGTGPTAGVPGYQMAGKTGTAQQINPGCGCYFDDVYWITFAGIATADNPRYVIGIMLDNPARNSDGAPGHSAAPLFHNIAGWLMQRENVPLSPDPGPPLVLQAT
- procedureDetails: biochemical
pIC50: −log10 of the molar value.
endpointLabel: pIC50

>>> reportedmeasurement("C[C@@H](O)[C@H]1C(=O)N2C(C(=O)O)=C(SCCN=CN)C[C@H]12")
6.30
>>> reportedmeasurement("O=c1c2cc(Cl)c(Cl)cc2sn1CCO")
4.10
>>> reportedmeasurement("O=C1C=CC(=O)N1c1ccc(Oc2ccccc2)c(Cl)c1")
4.00

Cited source for all entries: paper PMC12486854
